Field: log10(TGI). Provide a value for each of the compounds that follow.
- Tested on: SF-268 CNS
- assay.notes: NCI tumour cell line growth inhibition, 48 h
Values are log10 of TGI in µM.

input: Give the measured log10(TGI) of COc1cc(CNc2c3ccccc3nc3ccccc23)cc(OC)c1OC .
output: 1.22

input: Give the measured log10(TGI) of COC(=O)c1oc2c(C(=O)/C=C/c3ccc(OC)cc3)c(OCCN3CCOCC3)ccc2c1C .
output: 0.76

input: Give the measured log10(TGI) of CN(C)CCNC(=O)c1ccc2oc3cc4ccccc4c(=O)n3c2c1 .
output: 1.97

input: Give the measured log10(TGI) of N#CC1=C(N)Oc2c(sc3c(Br)cccc23)C1c1ccc(Cl)cc1 (stereo not given) .
output: 0.88

input: Give the measured log10(TGI) of Cc1cc(=O)n2c3c(c4c(cc13)c(CN(C)C)cc(=O)n4C)OC2 .
output: 1.75

input: Give the measured log10(TGI) of C=C1CC2(CCS(=O)(=O)c3ccccc32)OC1=O (stereo not given) .
output: 1.58

###

Field: GI50. Provide a value for each of the molecules that follow.
- System: HCT-15 colon
- assay.notes: NCI tumour cell line growth inhibition, 48 h

input: Test system HCT-15 colon; read-out GI50; what value for CC(C)C(=O)c1c(C(F)(F)F)n([O-])c2ccccc2[n+]1=O ?
output: 2310 nM

input: Test system HCT-15 colon; read-out GI50; what value for O=C1CC(N2C(=O)/C(=C/C(Cl)=C\c3ccc([N+](=O)[O-])cc3)SC2=S)C(=O)N1c1ccc(O)cc1 (stereo unspecified) ?
output: 472 nM

input: Test system HCT-15 colon; read-out GI50; what value for O=C([CH-]C(=O)c1ccccc1)c1ccccc1.O=C([CH-]C(=O)c1ccccc1)c1ccccc1.O=C([CH-]C(=O)c1ccccc1)c1ccccc1.[Cl-].[Hf+4] ?
output: 12500 nM

input: Test system HCT-15 colon; read-out GI50; what value for COc1ccc2nc3cccc([N+](=O)[O-])c3c(NC(C)CN(C)C)c2c1 (stereo unspecified) ?
output: 3710 nM

input: Test system HCT-15 colon; read-out GI50; what value for CC(C)Cc1ccc(C(C)C(=O)NCc2ccc(Cn3c(=O)sn(CCCI)c3=O)cc2)cc1 (stereo unspecified) ?
output: 237 nM

input: Test system HCT-15 colon; read-out GI50; what value for O=[N+]([O-])c1ccc2c(c1)C(c1ccccc1Cl)=Nc1c(n[nH]c1-c1cccnc1)N2 ?
output: > 25000 nM

input: Test system HCT-15 colon; read-out GI50; what value for COC(=O)c1oc2c(C(=O)/C=C/c3ccc(OC)cc3)c(OCCN3CCOCC3)ccc2c1C ?
output: 1460 nM

input: Test system HCT-15 colon; read-out GI50; what value for COc1cc(CCNC(=O)OC(C)(C)C)c2c(c1OC)SSSSS2 ?
output: 2450 nM

input: Test system HCT-15 colon; read-out GI50; what value for COc1cc2c(c(OC)c1OC)-c1c(c3ccc([N+](=O)[O-])cc3c(=O)n1CCCN)C2=O ?
output: 8160 nM

input: Test system HCT-15 colon; read-out GI50; what value for C=CC(=O)Nc1cccc(Oc2nc(Nc3ccc(N4CCN(C)CC4)cc3OC)ncc2Cl)c1 ?
output: 2590 nM

input: Test system HCT-15 colon; read-out GI50; what value for CC(=O)OCCCC#CC#Cc1cccc(=O)o1 ?
output: 11700 nM

input: Test system HCT-15 colon; read-out GI50; what value for COc1ccc(-c2[nH]nc(N)c2-c2cc(OC)c(OC)c(OC)c2)cc1 ?
output: 34.5 nM

input: Test system HCT-15 colon; read-out GI50; what value for C=CCOC(=O)Nc1cccn([C@H](CC(C)C)C(=O)NCCC(C)C)c1=O ?
output: 84500 nM

input: Test system HCT-15 colon; read-out GI50; what value for CN(C)Cc1c(C(=O)NCCOc2ccc(C(=O)NO)cc2)oc2ccccc12 ?
output: 1900 nM

input: Test system HCT-15 colon; read-out GI50; what value for CC[PH+](CC)CC.CC[PH+](CC)CC.[Au] ?
output: 6240 nM

input: Test system HCT-15 colon; read-out GI50; what value for C/C=C(\C)C(=O)O[C@H]1C=CC(=O)O[C@H]1COC(=O)[C@H](C)O ?
output: 3740 nM
